// read-out pIC50, gathered for Receptor tyrosine-protein kinase erbB-2 (Homo sapiens, UniProt P04626) from published studies
pIC50: −log10 of the molar value.

Below are worked cases with known answers.
compound=C=CC(=O)N1CCOc2c1ccc1ncnc(Nc3ccc(OCc4nccs4)cc3)c21 reported_result="≥ 7.30"
compound="OCCCCC(O)CNCc1ccc(-c2ccc3ncnc(Nc4ccc(OCc5cccc(F)c5)c(Cl)c4)c3c2)o1 (stereo not shown)" reported_result="> 5.00"
compound=CON=Cc1c(N)ncnc1NCc1ccc2c(c1)OCO2 reported_result="< 5.00"
compound=CC(C)c1nc(-c2cccc(NS(=O)(=O)c3ccc(C(C)(C)C)cc3)c2)c(-c2ccnc(Nc3ccc(N4CCOCC4)nc3)n2)s1 reported_result="6.00 to 7.00"
compound=COC(=O)c1ccc(-c2cc(Nc3ncnc(Nc4cccc(CC(N)=O)c4)n3)[nH]n2)cc1 reported_result="4.99 to 5.10"
compound=COc1cc(N2CCN(CCS(C)(=O)=O)CC2)c(C)cc1Nc1nccc(-c2sc(C3CCOCC3)nc2-c2cccc(NS(=O)(=O)c3c(F)cccc3F)c2)n1 reported_result="> 7.00"

Then there is this compound:
[Q] Provide pIC50, recorded with Receptor tyrosine-protein kinase erbB-2 (Homo sapiens, UniProt P04626), of `Nc1nc(-c2ccc(F)c(NS(=O)(=O)c3c(F)cccc3F)c2)c(-c2ccnc(Nc3ccc(N4CCOCC4)nc3)n2)s1`
[A] > 7.00

====

// read-out IC50, gathered for Receptor tyrosine-protein kinase erbB-2 (Homo sapiens, UniProt P04626) from published studies

molecule=C=CC(=O)Nc1cc2c(Nc3ccc(F)c(Cl)c3)ncnc2cc1OCC1CC2(CCN(C)CC2)C1 metric=IC50 reported_result="6.5 nM"
molecule=O=C(O)/C=C/c1ccc(Nc2ncnc(Nc3cc(-c4ccco4)[nH]n3)n2)cc1 metric=IC50 reported_result="1030 to 6160 nM"
molecule=COc1ccc(Nc2ncnc(N(C)c3cccc(Cl)c3)n2)cc1 metric=IC50 reported_result="> 13200 nM"
molecule=COc1cc(Nc2ncnc(-n3c(N[C@@H](CO)c4ccccc4)nc4ccccc43)n2)cc(OC)c1OC metric=IC50 reported_result="779 to 4670 nM"
molecule=O=S(=O)(Nc1cc(-c2nc(N3CCOCC3)sc2-c2ccnc(Nc3ccc4c(c3)OCCO4)n2)ccc1F)c1c(F)cccc1F metric=IC50 reported_result="100 to 1000 nM"
molecule="N#Cc1cnc2sc(C(=O)N3CCCC(F)C3)c3c2c1N(c1c(Cl)ccc2c1OCO2)C(=O)N3 (centres unmarked)" metric=IC50 reported_result="10600 nM"

[Q] Provide IC50, recorded with Receptor tyrosine-protein kinase erbB-2 (Homo sapiens, UniProt P04626), of `NC(=O)Cc1cccc(Nc2ncnc(Nc3cccc(Br)c3)n2)c1`
[A] > 11300 nM

[Q] Provide IC50, recorded with Receptor tyrosine-protein kinase erbB-2 (Homo sapiens, UniProt P04626), of `CO/N=C/c1c(N)ncnc1Nc1ccc(Oc2ccc(C)nc2)c(C)c1`
[A] 200 nM

[Q] Provide IC50, recorded with Receptor tyrosine-protein kinase erbB-2 (Homo sapiens, UniProt P04626), of `CN(c1cccc(Cl)c1)c1ncnc(NCCN2CCCCC2)n1`
[A] > 13000 nM

[Q] Provide IC50, recorded with Receptor tyrosine-protein kinase erbB-2 (Homo sapiens, UniProt P04626), of `Nc1ncnc(Nc2ccc(OCc3cccc(F)c3)c(Cl)c2)c1/C=N/OCCCO`
[A] 9 nM

[Q] Provide IC50, recorded with Receptor tyrosine-protein kinase erbB-2 (Homo sapiens, UniProt P04626), of `COc1cc(Nc2ncnc(Nc3cc(-c4ccccc4)n[nH]3)n2)cc(OC)c1OC`
[A] 954 to 5720 nM

[Q] Provide IC50, recorded with Receptor tyrosine-protein kinase erbB-2 (Homo sapiens, UniProt P04626), of `COc1ccc([C@H](C)Nc2nc3ccccc3n2-c2ncnc(Nc3cc(OC)c(OC)c(OC)c3)n2)cc1`
[A] > 8530 nM

[Q] Provide IC50, recorded with Receptor tyrosine-protein kinase erbB-2 (Homo sapiens, UniProt P04626), of `CCNc1nc(-c2cc(C)cc(OC)c2)c(-c2ccnc(Nc3ccc(N4CCN(C(C)=O)CC4)nc3)n2)o1`
[A] > 1000 nM

====

// read-out IC50, gathered for Receptor tyrosine-protein kinase erbB-2 (Homo sapiens, UniProt P04626) from published studies

Below are worked cases with known answers.
compound_smiles=CCNc1nc(-c2cc(OC)cc(OC)c2)c(-c2ccnc(Nc3ccc(OC4CCN(CCS(C)(=O)=O)CC4)c(C)c3)n2)o1 reported_result="> 1000 nM"
compound_smiles=Cc1ccc2c(c1)CCCN2c1ncnc(Nc2cccc(-c3cnco3)c2)n1 reported_result="< 1040 nM"
compound_smiles=COc1cccc(Nc2ncnc(Nc3cc(OC)c(OC)c(OC)c3)n2)c1 reported_result="< 1040 nM"
compound_smiles=COC(=O)c1ccc(-c2cc(Nc3ncnc(NCCc4ccc(OC)cc4)n3)[nH]n2)cc1 reported_result="898 to 5390 nM"
compound_smiles=COc1cc2c(Nc3ccc(Cl)c(Cl)c3)ncnc2cc1O[C@@H]1CO[C@@H]2[C@H]1OC[C@H]2F reported_result="< 50 nM"
compound_smiles=CN/C(=N/C#N)NCCCOc1cc2c(Nc3ccc(OCc4cccc(F)c4)c(Cl)c3)ncnc2cc1OC reported_result="40 nM"
compound_smiles=Cc1cccc(Nc2ncnc(N(C)c3ccc4c(cnn4Cc4ccccc4)c3)n2)c1 reported_result="< 949 nM"

[Q] Answer with reported IC50 of `COC(=O)c1ccc(-c2cc(Nc3ncnc(Nc4cccc(CCC(=O)O)c4)n3)[nH]n2)cc1`
[A] 871 to 5220 nM

====

pIC50: −log10 of the molar value.
// read-out pIC50, gathered for Receptor tyrosine-protein kinase erbB-2 (Homo sapiens) from published studies

compound_smiles=Cc1ccc2c(c1)CCCN2c1ncnc(NCCc2cccnc2)n1 metric=pIC50 reported_result="< 4.89"
compound_smiles=COc1cc(Nc2ncnc(Nc3ccc(OCC(=O)Nc4ccccc4)cc3)n2)cc(OC)c1OC metric=pIC50 reported_result="5.32 to 6.10"
compound_smiles=Nc1ncnc2c1c(-c1cc(OC[C@@H]3CCCO3)ccc1F)cn2[C@H]1C[C@@H](N2CCN(C(=O)CO)CC2)C1 metric=pIC50 reported_result="< 5.00"
compound_smiles=O=C(CN1CCOCC1)NCc1ccc(-c2cc3c(Nc4ccc(F)c(Cl)c4)ncnc3[nH]2)cc1 metric=pIC50 reported_result=8.12
compound_smiles=O=C(/C=C/CN1CCOCC1)N1CCOc2c1ccc1ncnc(Nc3ccc(Oc4ccccc4)cc3)c21 metric=pIC50 reported_result="≥ 7.30"
compound_smiles=Fc1cccc(COc2ccc(Nc3ncnc4sc(C#Cc5ncccn5)cc34)cc2Cl)c1 metric=pIC50 reported_result="7.00 to 7.50"
compound_smiles=CN(C)C/C=C/C(=O)N1CCOc2c1ccc1ncnc(Nc3ccc(OCc4ccc(F)cc4)cc3)c21 metric=pIC50 reported_result="≥ 7.30"
compound_smiles=CN(c1cccc(Cl)c1)c1ncnc(Nc2cccc(CNC(=O)O[C@@H]3CCOC3)c2)n1 metric=pIC50 reported_result="5.28 to 6.06"

[Q] Provide pIC50, recorded with Receptor tyrosine-protein kinase erbB-2 (Homo sapiens), of `COc1cc(N2CCN(CCF)CC2)ccc1Nc1nccc(-c2sc(C(C)C)nc2-c2cccc(NS(=O)(=O)c3c(F)cccc3F)c2)n1`
[A] 6.00 to 7.00

[Q] Provide pIC50, recorded with Receptor tyrosine-protein kinase erbB-2 (Homo sapiens), of `CC(=O)N1CCN([C@H]2C[C@H](n3cc(-c4cc(OC[C@@H]5CCCO5)ccc4F)c4c(N)ncnc43)C2)CC1`
[A] < 5.00

[Q] Provide pIC50, recorded with Receptor tyrosine-protein kinase erbB-2 (Homo sapiens), of `C=CC(=O)N1CCOc2c1ccc1ncnc(Nc3ccc(Oc4nccs4)cc3)c21`
[A] ≥ 7.30

====

// read-out IC50, gathered for Receptor tyrosine-protein kinase erbB-2 (Homo sapiens) from published studies

Below are worked cases with known answers.
compound=Cc1ccc2c(c1)CCCN2c1ncnc(Nc2ccc(F)c(F)c2)n1 reported_result="> 12700 nM"
compound=CCNc1nc(-c2cccc(Cl)c2)c(-c2ccnc(Nc3ccc(OCCN(C)C)c(Cl)c3)n2)s1 reported_result="< 100 nM"
compound="CCC(O)CNc1ncnc(Nc2ccc(OC)c(OC)c2)n1 (centres unmarked)" reported_result="> 14100 nM"
compound=c1ccc(Cc2nc3ccc(Nc4ncnc5nn6ccccc6c45)cc3[nH]2)cc1 reported_result="1000 to 10000 nM"
compound=O=C(CCc1ccc(F)cc1)NCC#Cc1cc2ncnc(Nc3ccc(OCc4cccc(F)c4)c(Cl)c3)c2s1 reported_result="31.6 to 100 nM"
compound=C=CC(=O)N1CCOc2c1ccc1ncnc(Nc3ccc(OCc4cccs4)cc3)c21 reported_result="≤ 50 nM"
compound=CC(C)NC/C=C/C(=O)N1CCOc2c1ccc1ncnc(Nc3ccc(OCc4ccccn4)c(Cl)c3)c21 reported_result="≤ 50 nM"
compound=COc1cccc(Oc2ccc(Nc3ncnc4ccc5c(c34)OCCN5C(=O)/C=C/CN(C)C)cc2)c1 reported_result="≤ 50 nM"

[Q] Provide IC50, recorded with Receptor tyrosine-protein kinase erbB-2 (Homo sapiens), of `c1ccc(Cn2ncc3cc(Nc4ncnc(Nc5ccc(N6CCOCC6)cc5)n4)ccc32)cc1`
[A] 836 to 5020 nM

[Q] Provide IC50, recorded with Receptor tyrosine-protein kinase erbB-2 (Homo sapiens), of CC1CCc2ccccc2N1c1ncnc(N2c3ccccc3CCC2C)n1 (centres unmarked)
[A] 6460 to 9420 nM

[Q] Provide IC50, recorded with Receptor tyrosine-protein kinase erbB-2 (Homo sapiens), of `COc1cc(Nc2ncnc(Nc3cccc4cccnc34)n2)cc(OC)c1OC`
[A] > 11100 nM
